- TESTED_ON: T1, Human soluble IL6-R (human, UniProt P08887 20-358)
- T1 construct: Bought soluble receptor; biotinylated in some Alphascreen assays; also called sIL6-R; hIL-6R
- T1 sequence (looked up): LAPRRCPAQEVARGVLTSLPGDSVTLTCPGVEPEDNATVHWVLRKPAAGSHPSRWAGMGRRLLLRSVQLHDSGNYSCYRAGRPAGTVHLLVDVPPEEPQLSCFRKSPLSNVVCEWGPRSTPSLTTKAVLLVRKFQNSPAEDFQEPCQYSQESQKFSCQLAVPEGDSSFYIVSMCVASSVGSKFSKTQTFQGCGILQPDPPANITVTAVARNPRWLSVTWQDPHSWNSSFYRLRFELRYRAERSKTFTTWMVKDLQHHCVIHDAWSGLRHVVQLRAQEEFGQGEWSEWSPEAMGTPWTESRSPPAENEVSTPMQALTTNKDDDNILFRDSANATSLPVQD
- PROTOCOL_NOTES: SPR (Biacore), off-rate
REPORTED_PROPERTY: koff (s⁻¹)

P. PMP 30 G11 (VHH, also called PMP30G11(t)) VHH: EVQLVESGGGLVQPGGSLRLSCVASGFSLDYYVIGWFRQAPGKEREGVSCISSSDGSTYYADSVKGRFTISRDNAKNTVYLQMNSLKPEDTAVYYCAADLLRTPEFCVDSAPYDYWGQGTQVTVSS
Q. IL6R12 (VHH, also called PMP35F4; PMP 35 F4) VHH: EVQLVESGGGLVQAGGSLRLSCAASGRTFSSYDMGWYRQAPGKEREFVAIITWNSSTYYADSVKGRFTISRDNAKNTVYLQMNSLKPEDTAIYYCNAQYGLGYAEDYWGQGTQVTVSS
Identify the entry with the larger koff. Options: P and Q Your answer should be the label attached to the chosen record.
P
(P: 0.00164 s⁻¹, Q: 0.000896 s⁻¹)
